# test-target: TNFα (Homo sapiens)
# Sequence (P01375 77-233 limits assumed): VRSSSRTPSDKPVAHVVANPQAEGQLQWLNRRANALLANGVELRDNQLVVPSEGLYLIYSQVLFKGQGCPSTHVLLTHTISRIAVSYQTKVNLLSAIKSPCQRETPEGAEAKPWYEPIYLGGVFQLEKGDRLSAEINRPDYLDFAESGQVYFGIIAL
# test-summary: TNF-Induced HEK-Blue Assay
# Type: cell-based
# test-parameters: HEK-Blue-CD40L cells, NF-kB-driven secreted alkaline phosphatase reporter; TNFα 0.5 ng/ml; 18 h; read-out: TNF induced HEK-Blue assay IC50 value
Positions of bridges follow the written chain, without caps; N, C: chain ends. Non-standard residues stand in square brackets, D forms with d. Residues, ends and D or L forms follow the SMILES beside them. Bip(4'-NHAc) = CC(=O)Nc1ccc(-c2ccc(C[C@H](N)C(=O)O)cc2)cc1; Ala(morpholin-4-yl) = N[C@@H](CN1CCOCC1)C(=O)O; Bip = N[C@@H](Cc1ccc(-c2ccccc2)cc1)C(=O)O; Phe(4-F) = N[C@@H](Cc1ccc(F)cc1)C(=O)O; Val(3-OH) = CC(C)(O)[C@H](N)C(=O)O; 2Pal = N[C@@H](Cc1ccccn1)C(=O)O; 3Pal = N[C@@H](Cc1cccnc1)C(=O)O; Sar = CNCC(=O)O
Please provide measured IC50 for the entries that follow.

Challenge: What measured IC50 goes with CC(C)C[C@@H]1NC(=O)[C@H](Cc2ccc(O)cc2)NC(=O)[C@H](C(C)C)NC(=O)[C@@H]2CCCN2C(=O)[C@H](C(C)C)NC(=O)[C@@H](CCCNC(=N)N)NC(=O)[C@H](CC(=O)O)NC(=O)[C@H](Cc2ccc(O)cc2)NC(=O)CN(C)C(=O)[C@H](Cc2ccc(-c3ccccc3)cc2)NC(=O)[C@H](Cc2ccc(-c3ccccc3)cc2)NC(=O)[C@H](CN2CCOCC2)NC(=O)CSC[C@@H](C(=O)NCC(N)=O)NC1=O [Example 68] ({CH2CO}-[Ala(morpholin-4-yl)][Bip][Bip][Sar]YD[dR]VPVYLCG-NH2; thioether N-13) ?
Response given: < 0.05 µM

Challenge: Looking for the measured IC50 of CC(C)C[C@@H]1NC(=O)[C@H](Cc2ccc(O)cc2)NC(=O)[C@H](C(C)C)NC(=O)[C@H](Cc2cccnc2)NC(=O)[C@H](C(C)C)NC(=O)[C@H](CCCNC(=N)N)NC(=O)[C@H](CC(=O)O)NC(=O)[C@H](Cc2ccc(O)cc2)NC(=O)CN(C)C(=O)[C@H](Cc2ccc(-c3ccccc3)cc2)NC(=O)[C@H](Cc2ccc(-c3ccccc3)cc2)NC(=O)[C@H](C(C)(C)O)NC(=O)CSC[C@@H](C(=O)NCC(N)=O)NC1=O [Example 106] ({CH2CO}-[Val(3-OH)][Bip][Bip][Sar]YDRV[3Pal]VYLCG-NH2; thioether N-13) , can you help?
Response given: 0.05 to 0.2 µM

Challenge: Name the recorded IC50 for CC(=O)Nc1ccc(-c2ccc(C[C@@H]3NC(=O)[C@H](Cc4ccc(-c5ccccc5)cc4)NC(=O)[C@H](C(C)(C)O)NC(=O)CSC[C@@H](C(=O)NCC(N)=O)NC(=O)[C@H](CC(C)C)NC(=O)[C@H](Cc4cnc[nH]4)NC(=O)[C@H](C(C)C)NC(=O)[C@@H]4CCCN4C(=O)[C@H](C(C)C)NC(=O)[C@@H](CCCNC(=N)N)NC(=O)[C@H](CC(=O)O)NC(=O)[C@H](Cc4ccccn4)NC(=O)CN(C)C3=O)cc2)cc1 [Example 518] ({CH2CO}-[Val(3-OH)][Bip][Bip(4'-NHAc)][Sar][2Pal]D[dR]VPVHLCG-NH2; thioether N-13) .
Response given: 0.05 to 0.2 µM

Challenge: So what's the measured IC50 for this one? CC(C)C[C@@H]1NC(=O)[C@H](CCCNC(=N)N)NC(=O)[C@H](C(C)C)NC(=O)[C@@H]2CCCN2C(=O)[C@H](Cc2ccc(F)cc2)NC(=O)[C@H](CCCNC(=N)N)NC(=O)[C@H](CC(=O)O)NC(=O)[C@@H]2CCCN2C(=O)CN(C)C(=O)[C@H](Cc2ccc(-c3ccccc3)cc2)NC(=O)[C@H](Cc2ccc(-c3ccccc3)cc2)NC(=O)[C@H](CN2CCOCC2)NC(=O)CSC[C@@H](C(=O)NCC(N)=O)NC1=O [Example 52] ({CH2CO}-[Ala(morpholin-4-yl)][Bip][Bip][Sar]PDR[Phe(4-F)]PVRLCG-NH2; thioether N-13)
Response given: 0.2 to 2 µM
